Origin of the recorded values: the supplement of paper PMC9233669

- Test system: biotinyl-Leu-oxazolone
- test_summary: self-aminoacylation, catalytic enhancement (BLO) (fold over background); higher = more active; k-Seq, kA / k0A0; sequences stand for … in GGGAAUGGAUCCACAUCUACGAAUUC…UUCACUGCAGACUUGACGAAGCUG
This sample holds only a part of the variants without activity.
parameter: self-aminoacylation

Input CUACUUCAAACAACCGGUAUG [Fam1A.1 aminoacylation ribozyme variant] . Output self-aminoacylation: 0.803

Input AAGUUUGCUAAGAAUCGCAAG [Fam3.1 aminoacylation ribozyme variant] . Output self-aminoacylation: 0.521

Input CCACACUUCAAGCAAUCCGCC [Fam1B.1 aminoacylation ribozyme variant] . Output self-aminoacylation: 1.02

Input AAGUGUGCUAAGAGUCGCAAG [Fam3.1 aminoacylation ribozyme variant] . Output self-aminoacylation: 1.13

Input AUUCACCUAGCUCAACGGGUG [Fam2.2 aminoacylation ribozyme variant] . Output self-aminoacylation: 2.28

Input AUUCACCUUGGUCAUCGGGAG [Fam2.2 aminoacylation ribozyme variant] . Output self-aminoacylation: 1.09

Input AUUCGCCUAGGUCAUCGAGUG [Fam2.2 aminoacylation ribozyme variant] . Output self-aminoacylation: 15.9

Input UCACACUUCAAGCAAUCGGAC [Fam1B.1 aminoacylation ribozyme variant] . Output self-aminoacylation: 0.598

Input GAUACCCUGGUCAUCGAGUGA [Fam2.1 aminoacylation ribozyme variant] . Output self-aminoacylation: 7.96

Input AAGUGUACUAAUAGUCGCAAG [Fam3.1 aminoacylation ribozyme variant] . Output self-aminoacylation: 1.2

Input CCACACUCCAAACAAUCGGUC [Fam1B.1 aminoacylation ribozyme variant] . Output self-aminoacylation: 1.09

Input AUUACCCUGGGCAUCGAGUUA [Fam2.1 aminoacylation ribozyme variant] . Output self-aminoacylation: 0.805

Input UUUACCCUGGUCAUCGAGCGA [Fam2.1 aminoacylation ribozyme variant] . Output self-aminoacylation: 3.21

Input CCACACUGCAAGCAAUCGGUU [Fam1B.1 aminoacylation ribozyme variant] . Output self-aminoacylation: 1.63

Input AUUACCCUGGUCAACGAGAGA [Fam2.1 aminoacylation ribozyme variant] . Output self-aminoacylation: 0.664

Input CUACUGCAAACAAUCGGGCUG [Fam1A.1 aminoacylation ribozyme variant] . Output self-aminoacylation: 1.61

Input AAGUUUCCUAAUAGUCACAAG [Fam3.1 aminoacylation ribozyme variant] . Output self-aminoacylation: 1.64

Input CUGCUUCAAACAAUCGGCCUG [Fam1A.1 aminoacylation ribozyme variant] . Output self-aminoacylation: 6.94

Input CUUGACCUAGGUCAUCGGGUG [Fam2.2 aminoacylation ribozyme variant] . Output self-aminoacylation: 4.42

Input AAUCACCUAGGUCAUCGGGCG [Fam2.2 aminoacylation ribozyme variant] . Output self-aminoacylation: 4.1

Input CUACUUCAAACCAUCGGUCCG [Fam1A.1 aminoacylation ribozyme variant] . Output self-aminoacylation: 0.996

Input AUUCAUCUAGGUCAUCGUGUG [Fam2.2 aminoacylation ribozyme variant] . Output self-aminoacylation: 1.23

Input GUUCACCUAAGUCAUCGGGUG [Fam2.2 aminoacylation ribozyme variant] . Output self-aminoacylation: 9.78

Input AAGUUUGCGACUAGUCGCAAG [Fam3.1 aminoacylation ribozyme variant] . Output self-aminoacylation: 1.34

Input CUUCACCUACGUCAUCGGGUG [Fam2.2 aminoacylation ribozyme variant] . Output self-aminoacylation: 5.63

Input AUUACCCAGGUCAUCGGGUGA [Fam2.1 aminoacylation ribozyme variant] . Output self-aminoacylation: 12.6

Input GCACACUUCAAGGAAUCGGUC [Fam1B.1 aminoacylation ribozyme variant] . Output self-aminoacylation: 1.61

Input UAGUUUGCCAAUAGUCGCAAG [Fam3.1 aminoacylation ribozyme variant] . Output self-aminoacylation: 1.87

Input AUUCACCUAUGUCAUCGGCUG [Fam2.2 aminoacylation ribozyme variant] . Output self-aminoacylation: 1.26

Input CCACACUUCAAGGAAGCGGUC [Fam1B.1 aminoacylation ribozyme variant] . Output self-aminoacylation: 1.13

Input AUUCACCUAGGUCACCGUGUG [Fam2.2 aminoacylation ribozyme variant] . Output self-aminoacylation: 1.48

Input CCAGACUUCAAGCAGUCGGUC [Fam1B.1 aminoacylation ribozyme variant] . Output self-aminoacylation: 1.77

Input GUUACCCUGGUCUUCGAGUGA [Fam2.1 aminoacylation ribozyme variant] . Output self-aminoacylation: 8.79

Input AAGUUUGCUAAUACUCGCAAA [Fam3.1 aminoacylation ribozyme variant] . Output self-aminoacylation: 0.837

Input AUUACCCGGGUCAUUGAGUGA [Fam2.1 aminoacylation ribozyme variant] . Output self-aminoacylation: 8.98
